Target: MDM2 (Homo sapiens)
Sequence (Q00987 1-125): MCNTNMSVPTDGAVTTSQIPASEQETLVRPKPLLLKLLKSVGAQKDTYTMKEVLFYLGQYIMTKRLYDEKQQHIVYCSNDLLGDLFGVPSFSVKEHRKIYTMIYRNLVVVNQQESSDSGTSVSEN
Assay: Competitive fluorescence polarization assay for MDM2
Assay type: binding
Conditions: competitive FP assay, MDM2; read-out: IC50 (MDM2)
Where a SMILES comes first, the peptide text is derived from it. Bridges are numbered along the chain shown (N, C = ends). [ ]: non-standard residue; d: D form. R8 = C=CCCCCCC[C@@](C)(N)C(=O)O; Cba = N[C@@H](CC1CCC1)C(=O)O; S5 = C=CCCC[C@](C)(N)C(=O)O; Nle = CCCC[C@H](N)C(=O)O
observedProperty: IC50

Given CC[C@H](C)[C@H](NC(C)=O)C(=O)N[C@H](C(=O)N[C@@H](Cc1ccccc1)C(=O)N[C@]1(C)CCCCCCC=CCCC[C@@](C)(C(=O)N[C@@H](C)C(=O)N[C@@H](CCC(=O)O)C(=O)N[C@@H](Cc2ccccc2)C(=O)N[C@@H](C)C(N)=O)NC(=O)[C@H](CC(C)C)NC(=O)[C@H](CCC(N)=O)NC(=O)[C@H](C)NC(=O)[C@H](Cc2c[nH]c3ccccc23)NC(=O)[C@H](Cc2c[nH]cn2)NC(=O)[C@H](Cc2ccccc2)NC1=O)[C@@H](C)O [compound 186] (Ac-ITF[R8]FHWAQL[S5]AEFA-NH2; staple 4-11) , state its recorded IC50.
10 to 100 nM

Input CC(=O)N[C@@H](CC(C)C)C(=O)N[C@H](C(=O)N[C@@H](Cc1ccccc1)C(=O)N[C@]1(C)CCCCCCC=CCCC[C@@](C)(C(=O)N[C@@H](CO)C(=O)N[C@@H](C)C(=O)N[C@@H](C)C(N)=O)NC(=O)[C@H](CC2CCC2)NC(=O)[C@H](CCC(N)=O)NC(=O)[C@H](C)NC(=O)[C@H](Cc2c[nH]c3ccccc23)NC(=O)[C@H](Cc2ccc(O)cc2)NC(=O)[C@H](C)NC1=O)[C@@H](C)O [compound 255] (Ac-LTF[R8]AYWAQ[Cba][S5]SAA-NH2; staple 4-11)
10 to 100 nM

Can you check CC(=O)N[C@@H](CC(C)C)C(=O)N[C@H](C(=O)N[C@@H](Cc1ccccc1)C(=O)N[C@]1(C)CCCCCCC=CCCC[C@@](C)(C(=O)N[C@@H](C)C(=O)N[C@@H](C)C(=O)N[C@H](C(=O)N[C@H](C)C(N)=O)C(C)C)NC(=O)[C@H](CC(C)C)NC(=O)[C@H](CCC(N)=O)NC(=O)[C@H](C)NC(=O)[C@H](Cc2c[nH]c3ccccc23)NC(=O)[C@H](Cc2ccc(O)cc2)NC(=O)[C@H](C)NC1=O)[C@@H](C)O (single isomer, unassigned) next?
< 10 nM

// next record CCCC[C@H](NC(=O)[C@H](Cc1c[nH]c2ccccc12)NC(=O)[C@H](C)NC(=O)[C@]1(C)CCCC=CCCCCCC[C@@](C)(NC(=O)[C@H](Cc2ccccc2)NC(=O)[C@@H](NC(=O)[C@H](CCC(=O)O)NC(C)=O)[C@@H](C)O)C(=O)N[C@@H](C)C(=O)N[C@@H](Cc2ccc(O)cc2)C(=O)N[C@@H](Cc2c[nH]c3ccccc23)C(=O)N[C@@H](C)C(=O)N[C@@H](CCC(N)=O)C(=O)N[C@@H](CC2CCC2)C(=O)N1)C(=O)N[C@@H](C)C(N)=O [compound 240] (Ac-ETF[R8]AYWAQ[Cba][S5]AW[Nle]A-NH2; staple 4-11)
10 to 100 nM
